Assay: Kinetic solubility
Format: physicochemical
Settings: Dulbecco's phosphate buffer saline (DPBS), aqueous buffer, kinetic from dmso stock, DPBS pH 7.4, 25° C., 200 μM test compound
Method: Example 144. Kinetic Solubility 10 μL of 10 mM DMSO stock solution were aliquotted to 490 μL of DMSO solution and separately 490 μL of Dulbecco's phosphate buffer saline, DPBS, pH 7.4 solution in 1.2 mL 96-well plates in duplicate. Final concentration was 200 μM of the test compound. Samples were incubated at 25° C. with shaking at 200 rpm for 16 h. […] Kinetic solubility was measured using the following equation: […]
Entries and their solubility at 16 h values follow.
Reply with just the number (in µM).

**Query** What value of solubility at 16 h has been recorded for this entry: Cl.Cn1c(Nc2nc3ccccc3o2)nc2cc(C(=O)NCCN)ccc21
**Result** 12.4
